tested on: RXF 393 renal; experiment: NCI tumour cell line growth inhibition, 48 h
EXPERIMENTAL READOUT: TGI

>>> reported_result("CC(=O)NC(C)c1ccc(N=NN2CCCC2)cc1 (stereo unspecified)")
"> 100 µM"
>>> reported_result("Clc1ccc(C(c2ccc(Cl)cc2)N2CCNCC2)cc1")
"9.75 µM"
>>> reported_result("NC(=O)C[C@H](NC(=O)C1(NC(=O)[C@H](Cc2ccc(CP(=O)(O)O)cc2)NC(=O)C(=O)O)CCCCC1)C(=O)NCCCc1cccc2ccccc12")
"> 10 µM"
>>> reported_result("CC(C)(c1ccc(Oc2ccc(C#N)c(C#N)c2)cc1)c1ccc(Oc2ccc(C#N)c(C#N)c2)cc1")
"> 100 µM"
>>> reported_result("NC(=O)C(=Cc1ccc(CP(=O)(O)O)cc1)C(N)=O")
"> 100 µM"
>>> reported_result("COc1ccc2c3c(c4ccccc4cc13)C(=O)N(CCN(C)CCN)C2=O")
"1.29 µM"

* * *

system: OVCAR-8 ovarian; assay: NCI tumour cell line growth inhibition, 48 h
EXPERIMENTAL READOUT: TGI

>>> reported_result("Cc1ccc(C(=O)C2=CN=C3C(=O)N(c4ccccc4)N(C)C3(C)C2=N)cc1 (stereo not given)")
"> 100 µM"
>>> reported_result("COc1cc(/C=C2\\N=C(C)N(n3c(-c4ccccc4)nc4ccccc4c3=O)C2=O)cc(OC)c1OC")
"> 100 µM"
>>> reported_result("CC(C)(C)OC(=O)N1Cc2cc(O)ccc2C[C@H]1C(=O)O")
"> 100 µM"
>>> reported_result("c1ccc(CCN2CCN=C2Cc2ccccc2)cc1")
"> 100 µM"
>>> reported_result("CCOC(=O)C1=NN(c2ccc(Cl)cc2)C2=CC(C)=NN(C)C(=S)N21")
"> 100 µM"
>>> reported_result("COc1cc(C=O)c(-c2cc3c(cc2C2(C)OCCS2)OCO3)c(OC)c1OC (stereo not given)")
"> 75.1 µM"
>>> reported_result("O=C(Cc1ccccc1)N=Nc1c(O)[nH]c2ccccc12")
"> 100 µM"
>>> reported_result("COc1ccc(S(=O)(=O)Nc2ccc(-c3csc(N4C(=O)/C(=C/c5ccccc5)N=C4c4ccccc4)n3)cc2)cc1Cl")
"> 100 µM"
>>> reported_result("COc1ccc(-c2nnc(-c3c(C)n(C)n(-c4ccccc4)c3=O)o2)cc1")
"> 100 µM"
>>> reported_result("CC(=O)C1COC(O)C1C (stereo not given)")
"46 µM"

* * *

test system: T-47D breast; assay: NCI tumour cell line growth inhibition, 48 h
EXPERIMENTAL READOUT: TGI

>>> reported_result("O=[N+]([O-])c1ccc2nc(/C=C(\\O)c3ccccc3)c(/C=C(\\O)c3ccccc3)nc2c1")
"37.3 µM"
>>> reported_result("CN1CCN(/C(N)=C(\\C#N)C(=O)Nc2ccccc2)CC1")
"> 100 µM"
>>> reported_result("CCN(CC)CCCC(C)Nc1c2ccc(Cl)cc2nc2cc(OC)c(OC)cc12 (stereo not drawn)")
"32.5 µM"
>>> reported_result("Nc1nc2ccc3[nH]ncc3c2c2c1CCCC2")
"11.7 µM"
>>> reported_result("O=C1c2cc(-c3ccccc3)ccc2-c2c1c1ccc([N+](=O)[O-])cc1c(=O)n2CCCBr")
"> 50 µM"
>>> reported_result("N#CCOc1cccc(C2(N3CC=CCC3)CCCCC2)c1")
"> 100 µM"
>>> reported_result("C=CC[C@@H]1C=C[C@@H](C(=O)OC)n2c(=O)n(-c3ccccc3)c(=O)n21")
"> 100 µM"
>>> reported_result("CCCCC1(N=[N+]=[N-])C(=O)C2C=CC=C3c4ccccc4N(C1=O)C32 (stereo not drawn)")
"> 31.6 µM"

* * *

test system: MCF7 breast; assay: NCI tumour cell line growth inhibition, 48 h
EXPERIMENTAL READOUT: TGI (µM)

>>> reported_result("Clc1ccc(C(c2ccc(Cl)cc2)N2CCNCC2)cc1")
3.86
>>> reported_result("Fc1cccc(CSc2ncnc3c2ncn3C2CCCS2)c1 (centres undefined)")
63.7
>>> reported_result("COc1ccc(SC2c3ccc(C)cc3Oc3nc(N)c(C#N)c(N)c32)cc1 (centres undefined)")
4.72
>>> reported_result("COc1ccc2c(c1)CCc1[nH]nc(-c3cc(OC)c(OC)c(OC)c3)c1-2")
12.9
>>> reported_result("CCCCOC(=O)c1ccc(NC(=O)CCl)cc1")
10
>>> reported_result("COc1cc2c(cc1OC)-c1ccc3cc4c(cc3c1N(CCN(C)C)C2)OCO4")
5.98
>>> reported_result("CCOc1ccc2nc(-c3cccc(OCC(=O)NC(C)C)c3)nc(Nc3ccc(-c4cn[nH]c4)cc3)c2c1")
2.11
>>> reported_result("C[C@@H](NC(=O)[C@@H](CC(=O)N1CCC(N2CCCCC2)CC1)N1C(=O)[C@@H](N2C(=O)OC[C@@H]2c2ccccc2)[C@H]1/C=C/c1cccc(Cl)c1)c1ccccc1")
5.36

* * *

tested on: SK-MEL-28 melanoma; assay: NCI tumour cell line growth inhibition, 48 h; in the data active = GI50 below about 0.43 µM; inactive = the rest
Outcome codes: yes (active), no (inactive)

>>> assigned_class("CC(C)(c1ccc(Oc2ccc(C#N)c(C#N)c2)cc1)c1ccc(Oc2ccc(C#N)c(C#N)c2)cc1")
"no"
>>> assigned_class("Oc1ccc2ccccc2c1C1NN=C(c2ccccc2)S1 (stereo not drawn)")
"no"
>>> assigned_class("COc1cc(F)cc([C@@H](CO)NC(=O)[C@@H](C)N2Cc3ccc(-c4nc(NC5CCOCC5)ncc4Cl)cc3C2=O)c1")
"yes"
>>> assigned_class("CN1C(=O)C(=Cc2cn(Cc3ccccc3)c3ccccc23)C(=O)N(C)C1=O")
"no"
>>> assigned_class("COc1ccc(-c2nn(-c3cccc(Cl)c3)cc2-c2c(C#N)c(=O)n3[nH]c(-c4ccc(C)cc4)nc3c2C#N)cc1")
"no"
>>> assigned_class("CC1(C)CCC[C@]2(C)c3cc(O)ccc3CC[C@@H]12")
"no"
>>> assigned_class("C[C@]1(C(=O)O)N[C@H](C(=O)O)CS1")
"no"
>>> assigned_class("COc1ccc([I+]c2ccccc2)cc1")
"no"
>>> assigned_class("O=C1NC(=O)C(c2ccc(Cl)cc2)=C1Nc1ccc(Cl)c(C(=O)O)c1")
"no"
>>> assigned_class("O=C(NCCN1CCC(O)CC1)c1cc2c(o1)C(=O)c1ccccc1C2=O")
"no"
>>> assigned_class("COc1ccc2c(c1)c1nc3cc(C)c(C)cc3nc1n2CCN(C)C")
"no"
>>> assigned_class("N#Cc1ccc(C2C3=C(CCCC3=O)OC3=C2C(=O)c2ccccc2C3=O)cc1 (stereo not drawn)")
"no"
>>> assigned_class("C[C@@H](NC(=O)[C@@H](CC(=O)N1CCC(N2CCCCC2)CC1)N1C(=O)[C@@H](N2C(=O)OC[C@@H]2c2ccccc2)[C@H]1/C=C/c1cccc(Cl)c1)c1ccccc1")
"no"

* * *

system: BT-549 breast; assay: NCI tumour cell line growth inhibition, 48 h; in the data active means GI50 below about 0.43 µM; inactive means the rest
Outcome codes: active, inactive

>>> assigned_class("COc1cc2c(cc1OC)-c1ccc3cc4c(cc3c1N(CCN(C)C)C2)OCO4")
"inactive"
>>> assigned_class("Cc1cccc(Cl)c1NC(=O)c1cnc(Nc2cc(N3CCOCC3)cc(N3CCOCC3)c2)s1")
"inactive"
>>> assigned_class("COc1cc(-c2csc(NC(=O)Nc3cc(C(F)(F)F)cc(C(F)(F)F)c3)n2)cc(OC)c1OC")
"inactive"
>>> assigned_class("Oc1ccc2ccccc2c1C1NN=C(c2ccccc2)S1 (stereo unspecified)")
"inactive"
>>> assigned_class("Cc1cc([N+](=O)[O-])ccc1NS(=O)(=O)c1cc(Cl)ccc1Cl")
"inactive"
>>> assigned_class("O=C1NC(=O)C(c2ccc(Cl)cc2)=C1Nc1ccc(Cl)c(C(=O)O)c1")
"inactive"
>>> assigned_class("CCCCOC(=O)c1ccc(NC(=O)CCl)cc1")
"inactive"
>>> assigned_class("COc1ccc(SC2c3ccc(C)cc3Oc3nc(N)c(C#N)c(N)c32)cc1 (stereo unspecified)")
"inactive"
>>> assigned_class("CN1C(=O)C(=Cc2cn(Cc3ccccc3)c3ccccc23)C(=O)N(C)C1=O")
"inactive"
>>> assigned_class("N#Cc1ccc(C2C3=C(CCCC3=O)OC3=C2C(=O)c2ccccc2C3=O)cc1 (stereo unspecified)")
"inactive"
>>> assigned_class("c1ccc(Nn2c(CCCCCCCCc3nnc(COc4ccccc4)n3Nc3ccccc3)nnc2COc2ccccc2)cc1")
"inactive"
>>> assigned_class("Cn1cc(-c2nc(-c3c[nH]c4ccncc34)cs2)c2cc(F)ccc21")
"inactive"
>>> assigned_class("CN[C@@H]1C[C@H]2O[C@@](C)([C@@H]1OC)n1c3ccccc3c3c4c(c5c6ccccc6n2c5c31)C(=O)N[C@H]4O")
"active"
>>> assigned_class("COc1ccc2nc3cc([N+](=O)[O-])ccc3c(NCCCN(CCO)CCO)c2c1")
"inactive"
>>> assigned_class("CN1CCN(C(=O)c2c(NC(=O)NS(=O)(=O)c3ccccc3)sc3c2CCCCC3)CC1")
"inactive"
>>> assigned_class("COc1ccc2c(c1)c1nc3cc(C)c(C)cc3nc1n2CCN(C)C")
"inactive"
